target.desc: HER2 (Homo sapiens)
Construct: purchased ProQinase GmbH
Sequence (P04626 23-1255): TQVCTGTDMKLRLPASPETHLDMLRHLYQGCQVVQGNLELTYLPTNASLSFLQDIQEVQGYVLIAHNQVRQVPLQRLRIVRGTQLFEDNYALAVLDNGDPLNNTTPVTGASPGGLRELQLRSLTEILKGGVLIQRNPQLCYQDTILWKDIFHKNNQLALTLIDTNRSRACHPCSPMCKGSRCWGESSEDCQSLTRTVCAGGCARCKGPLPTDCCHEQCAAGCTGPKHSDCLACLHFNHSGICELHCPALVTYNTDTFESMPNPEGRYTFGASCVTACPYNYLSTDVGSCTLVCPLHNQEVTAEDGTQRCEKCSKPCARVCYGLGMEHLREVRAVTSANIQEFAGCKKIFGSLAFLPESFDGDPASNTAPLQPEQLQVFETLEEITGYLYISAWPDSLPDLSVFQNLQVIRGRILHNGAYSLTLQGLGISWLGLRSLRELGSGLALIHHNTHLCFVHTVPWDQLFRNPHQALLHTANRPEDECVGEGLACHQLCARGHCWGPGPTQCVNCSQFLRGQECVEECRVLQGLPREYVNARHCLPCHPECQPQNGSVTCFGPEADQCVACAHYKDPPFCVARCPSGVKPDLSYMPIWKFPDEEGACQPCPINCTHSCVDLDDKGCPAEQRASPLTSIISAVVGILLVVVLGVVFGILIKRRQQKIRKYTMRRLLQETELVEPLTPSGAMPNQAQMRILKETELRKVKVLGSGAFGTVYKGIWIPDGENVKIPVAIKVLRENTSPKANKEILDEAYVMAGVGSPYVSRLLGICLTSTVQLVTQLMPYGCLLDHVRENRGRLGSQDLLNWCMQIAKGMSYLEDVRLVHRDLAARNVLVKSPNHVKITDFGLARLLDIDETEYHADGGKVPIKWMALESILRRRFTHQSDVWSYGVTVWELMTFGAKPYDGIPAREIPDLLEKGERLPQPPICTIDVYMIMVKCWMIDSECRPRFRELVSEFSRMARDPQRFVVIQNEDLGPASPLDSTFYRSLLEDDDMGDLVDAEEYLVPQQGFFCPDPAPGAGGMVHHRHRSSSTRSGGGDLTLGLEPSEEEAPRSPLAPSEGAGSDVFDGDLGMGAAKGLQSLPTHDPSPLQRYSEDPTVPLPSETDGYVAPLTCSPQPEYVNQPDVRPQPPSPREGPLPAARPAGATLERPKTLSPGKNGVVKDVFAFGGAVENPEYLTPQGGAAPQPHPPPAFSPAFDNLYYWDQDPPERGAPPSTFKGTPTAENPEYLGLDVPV
assay.protocol: HER2 protein kinase assay (33PanQinase), single concentration
Format: biochemical
stated.conditions: 0.5 μM (5 × 10^−7 M), singlicate, % of control activity; read-out: Residual activity under 0.5 μM drug concentration (%) HER2
reported.metric: remaining activity at 0.5 µM (%)

smiles.data: COc1cc2c(cc1Nc1ncc(C#N)c(Nc3ccc(OCc4ccccn4)cc3)n1)N(C(=O)/C=C/CN(C)C)CC21CC1
units.of.measure: %
numeric.readout: 103
--
smiles.data: COc1cc2c(cc1Nc1ncc(C#N)c(Nc3cnn(Cc4ccccn4)c3)n1)N(C(=O)/C=C/CN(C)C)CC1(CC1)O2
units.of.measure: %
numeric.readout: 100
--
smiles.data: C=CC(=O)N1CC2(CCN(C)CC2)c2cc(OC)c(Nc3ncc(C#N)c(Nc4ccc(OCc5ccccc5)c(Cl)c4)n3)cc21
units.of.measure: %
numeric.readout: 12
--
smiles.data: COc1cc2c(cc1Nc1ncc(C#N)c(Nc3ccc(OCc4ccccc4)c(Cl)c3)n1)N(C(=O)/C=C/CN(C)C)CC1(CC1)O2
units.of.measure: %
numeric.readout: 111
--
smiles.data: COc1cc2c(cc1Nc1ncc(C#N)c(Nc3ccc(OCc4ccccn4)c(Cl)c3)n1)N(C(=O)/C=C/CN(C)C)CC1(CC1)O2
units.of.measure: %
numeric.readout: 108
--
smiles.data: C=CC(=O)N1CC2(CCN(C)CC2)c2cc(OC)c(Nc3ncc(C#N)c(Nc4cnn(Cc5ccccn5)c4)n3)cc21
units.of.measure: %
numeric.readout: 34

Value source: paper PMC6691816
